Tested on: 695427-040-R-J1-PDC complex spheroids, viability percent T/C
protocol-details: Anticancer human tumor 695427-040-R-J1-PDC patient-derived colon adenocarcinoma cell line growth inhibition [GQUAD]
test-settings: second compound 3.16 µM; first compound 1 µM; active compounds read low
In this section, each of the molecules is paired with its reported viability, T/C.
Note: unit % is implicit; provide only the numeric part.

CC1COCCN1c1cc(-c2ccnn2C)c2ccnc(-c3ccn[nH]3)c2n1 (stereo not drawn) + CN(C)c1ccc(Nc2c3ccc(NC(=O)CCN4CCCC4)cc3nc3cc(NC(=O)CCN4CCCC4)ccc23)cc1 | 48.9

viability, T/C reading for COc1ccc([C@@H](O)c2cc(-c3ncnc4cc(N5CCOCC5)ccc34)c(F)cc2Cl)nn1 + CN(C)c1ccc(Nc2c3ccc(NC(=O)CCN4CCCC4)cc3nc3cc(NC(=O)CCN4CCCC4)ccc23)cc1 : 83.3

viability, T/C reading for Nc1ccn(C2OC(CO)C(O)C2(F)F)c(=O)n1 (stereo not drawn) + Cc1[nH]c2ccc(F)cc2c1-c1nc2c3cccnc3c3ncccc3c2[nH]1 : 53.3

----------
In this section, each of the compounds is paired with its reported viability, T/C.
Tested on: 695427-040-R-J1-PDC complex spheroids, viability percent T/C
protocol-details: Anticancer human tumor 695427-040-R-J1-PDC cell line growth inhibition [GQUAD];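 note: spheroids exposed to compounds for seven days before readout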
test-settings: second compound 3.16 µM; first compound 3.16 µM; active compounds read low
Text: DNA G-quadruplex Stabilizer Agents in Combinations in Complex Spheroids A high-throughput screen of multi-cell type tumor spheroids was designed to identify active combinations of DNA G-quadruplex stabilizer agents and targeted small molecules. […] Compounds. […] If the clinical Cmax for an agent had not been determined, the highest concentration tested was 10 microM. […]
Note: unit % is implicit; provide only the numeric part.

Look over these answered cases.
O=C(NO)c1cnc(N2CCN(S(=O)(=O)c3ccc4ccccc4c3)CC2)nc1 + Cc1cnc(CNC(=O)c2c(=O)c3ccc(N4CCCN(C)CC4)nc3n3c2sc2ccccc23)cn1 | 0.11
CCCS(=O)(=O)Nc1ccc(F)c(C(=O)c2c[nH]c3ncc(-c4ccc(Cl)cc4)cc23)c1F + Cc1cnc(CNC(=O)c2c(=O)c3ccc(N4CCCN(C)CC4)nc3n3c2sc2ccccc23)cn1 | 52.7

Consider the record given below.
viability, T/C reading for C#Cc1c(F)ccc2cc(O)cc(-c3ncc4c(N5CC6CCC(C5)N6)nc(OCC56CCCN5CC(F)C6)nc4c3F)c12 (stereo not drawn) + CN(C)c1ccc(Nc2c3ccc(NC(=O)CCN4CCCC4)cc3nc3cc(NC(=O)CCN4CCCC4)ccc23)cc1 : 86.2

----------
System: 695427-040-R-J1-PDC complex spheroids, viability percent T/C
protocol-details: Anticancer human tumor 695427-040-R-J1-PDC cell line growth inhibition [GQUAD];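 note: spheroids exposed to compounds for seven days before readout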
test-settings: second compound 0.1 µM; first compound 0.316 µM; active compounds read low
In this section, each of the molecules is paired with its reported viability, T/C.

Look over these answered cases.
Cc1cccc(N(C)C(=O)C2C(O)CCN2c2nc(C)cc(C(F)(F)F)c2C#N)c1 (stereo not given) + Cc1cnc(CNC(=O)c2c(=O)c3ccc(N4CCCN(C)CC4)nc3n3c2sc2ccccc23)cn1 | 102%
C=CC(=O)N1CCN(c2nc(=O)n(-c3c(C)ccnc3C(C)C)c3nc(-c4c(O)cccc4F)c(F)cc23)C(C)C1 (stereo not given) + CN(C)c1ccc(Nc2c3ccc(NC(=O)CCN4CCCC4)cc3nc3cc(NC(=O)CCN4CCCC4)ccc23)cc1 | 104%
Cc1[nH]c2ccccc2c1CCNCc1ccc(/C=C/C(=O)NO)cc1 + CN(C)c1ccc(Nc2c3ccc(NC(=O)CCN4CCCC4)cc3nc3cc(NC(=O)CCN4CCCC4)ccc23)cc1 | 69.7%
COc1cc(C2c3cc4c(cc3C(OC3OC5COC(C)OC5C(O)C3O)C3COC(=O)C23)OCO4)cc(OC)c1O (stereo not given) + CN(C)c1ccc(Nc2c3ccc(NC(=O)CCN4CCCC4)cc3nc3cc(NC(=O)CCN4CCCC4)ccc23)cc1 | 95.7%
CC(C)n1c(=O)n(C)c2cnc3cc(F)c(-c4ccc(OCCCN5CCCCC5)nc4)cc3c21 + Cc1cnc(CNC(=O)c2c(=O)c3ccc(N4CCCN(C)CC4)nc3n3c2sc2ccccc23)cn1 | 91.7%
O=c1[nH]cc(F)c(=O)[nH]1 + Cc1cnc(CNC(=O)c2c(=O)c3ccc(N4CCCN(C)CC4)nc3n3c2sc2ccccc23)cn1 | 72.4%

viability, T/C reading for CC(=O)O[C@H]1C(=O)[C@@]2(C)[C@H]([C@H](OC(=O)c3ccccc3)[C@]3(O)C[C@H](OC(=O)[C@H](O)[C@@H](NC(=O)c4ccccc4)c4ccccc4)C(C)=C1C3(C)C)[C@]1(OC(C)=O)CO[C@@H]1C[C@@H]2O + Cc1cnc(CNC(=O)c2c(=O)c3ccc(N4CCCN(C)CC4)nc3n3c2sc2ccccc23)cn1 : 91.5%

viability, T/C reading for COc1ncnc(C2CC2)c1-c1ncc2cnn(Cc3ccc(-c4nc(C(F)(F)F)cn4C(C)C)cc3)c2n1 + Cc1[nH]c2ccc(F)cc2c1-c1nc2c3cccnc3c3ncccc3c2[nH]1 : 98.5%

viability, T/C reading for CC1COCCN1c1cc(C2(O)CC3CCC(C2)O3)c2cnn(-c3ccn[nH]3)c2n1 (stereo not given) + Cc1cnc(CNC(=O)c2c(=O)c3ccc(N4CCCN(C)CC4)nc3n3c2sc2ccccc23)cn1 : 47%

viability, T/C reading for O=C(NO)c1cnc(N2CCN(S(=O)(=O)c3ccc4ccccc4c3)CC2)nc1 + Cc1[nH]c2ccc(F)cc2c1-c1nc2c3cccnc3c3ncccc3c2[nH]1 : 83%
